Test system: Flu A (H3N2)
Assay: microbe, parasite or virus in culture
Type: cell-based
Conditions: Flu A (H3N2); Visual; MDCK; read-out: EC50
assay metric: EC50

Item Nc1nccc2ncn([C@@H]3C=C(CO)[C@@H](O)[C@H]3O)c12 [Compound N7-3-DNPA] has what recorded EC50? > 32 µM
